- method.description: Cytotoxicity against human PBMC assessed as reduction in cell viability by MTS assay
- Assay type: cell-based
- study.conditions: read-out: TC50 (the source's name)

# compound, CC50
rows = [
    ("COc1cccc(C2NC(=O)NC(C)=C2c2nc(-c3ccc(C#N)cc3)cs2)n1 (stereo not given)", "> 100 µM"),
    ("CC1=C(c2nc(-c3ccc(C#N)cc3)cs2)C(c2ccnc(Cl)c2)NC(=O)N1 (stereo not given)", "> 100 µM"),
    ("CC1=C(c2nc(-c3ccccc3)cs2)C(c2cccc(O)c2)NC(=O)N1 (stereo not given)", "76 µM"),
    ("CC1=C(c2nc(-c3ccc(C#N)cc3)cs2)[C@@H](c2cccc(O)c2)NC(=O)N1", "> 100 µM"),
    ("CC1=C(c2nc(-c3ccc(C#N)cc3)cs2)C(c2cncc(F)c2)NC(=O)N1 (stereo not given)", "> 100 µM"),
]

----------
Below is a list of entries, each paired with its recorded CC50 at 48 h value.
- method.description: Cytotoxicity against human MAGI-CCR5 cells assessed as reduction in cell viability after 48 hrs by MTS assay
- Assay type: cell-based
- study.conditions: read-out: TC50
measurement.kind: CC50 at 48 h

# compound, observed.value
measured = [
    ("CC1=C(c2nc(-c3ccc(C)cc3)cs2)C(c2cccc(O)c2)NC(=O)N1 (centres undefined)", "61 µM"),
    ("CC1=C(c2nc(-c3ccc(C#N)cc3)cs2)C(c2ccnc3ccccc23)NC(=O)N1 (centres undefined)", "> 100 µM"),
    ("CC1=C(c2nc(-c3ccc(C#N)cc3)cs2)C(c2ccncc2F)NC(=O)N1 (centres undefined)", "> 100 µM"),
    ("CC1=C(c2nc(-c3ccc4ccccc4c3)cs2)C(c2cccc(O)c2)NC(=O)N1 (centres undefined)", "55 µM"),
    ("CC1=C(c2nc(-c3ccc(C#N)cc3)cs2)C(c2cccnc2Cl)NC(=O)N1 (centres undefined)", "> 100 µM"),
    ("CC1=C(c2nc(-c3ccc(C#N)cc3)cs2)C(c2ccc(Oc3ccccc3)cc2)NC(=O)N1 (centres undefined)", "> 10 µM"),
    ("COc1ccc(C2NC(=O)NC(C)=C2c2nc(-c3ccc(C#N)cc3)cs2)cn1 (centres undefined)", "> 10 µM"),
    ("COc1ccc(C2NC(=O)NC(C)=C2c2nc(-c3ccc(C#N)cc3)cs2)cc1 (centres undefined)", "7 µM"),
    ("CC1=C(c2nc(-c3ccc(C#N)cc3)cs2)C(c2ccc(Oc3ccccc3)nc2)NC(=O)N1 (centres undefined)", "> 100 µM"),
    ("CC1=C(c2nc(-c3ccc(C#N)cc3)cs2)C(c2ccc(O)cc2)NC(=O)N1 (centres undefined)", "> 10 µM"),
    ("CC1=C(c2nc(-c3ccc(C#N)cc3)cs2)C(c2ccc(F)nc2)NC(=O)N1 (centres undefined)", "> 100 µM"),
    ("COc1cccc(C2NC(=O)NC(C)=C2c2nc(-c3ccc(C#N)cc3)cs2)n1 (centres undefined)", "> 100 µM"),
    ("CC1=C(c2nc(-c3ccc(C#N)cc3)cs2)C(c2ccc(Cl)nc2)NC(=O)N1 (centres undefined)", "> 100 µM"),
    ("CC1=C(c2nc(-c3ccc(C#N)cc3)cs2)C(c2ccc(Br)nc2)NC(=O)N1 (centres undefined)", "> 100 µM"),
    ("COc1cccc(C2NC(=O)NC(C)=C2c2nc(-c3ccc(C#N)cc3)cs2)c1 (centres undefined)", "> 100 µM"),
    ("CC1=C(c2nc(-c3ccc(C#N)cc3)cs2)C(c2cc3ccccc3[nH]2)NC(=O)N1 (centres undefined)", "50.5 µM"),
    ("CC1=C(c2nc(-c3ccc(C#N)cc3)cs2)C(c2ccc(Cl)nc2Cl)NC(=O)N1 (centres undefined)", "> 100 µM"),
    ("CC1=C(c2nc(-c3ccc(C#N)cc3)cs2)C(c2cccc(OC(F)(F)F)c2)NC(=O)N1 (centres undefined)", "> 100 µM"),
    ("CC1=C(c2nc(-c3ccc(C#N)cc3)cs2)C(c2cc3ccccc3n2C)NC(=O)N1 (centres undefined)", "> 100 µM"),
    ("Cc1cn([C@H]2C[C@H](N=[N+]=[N-])[C@@H](CO)O2)c(=O)[nH]c1=O [ZIDOVUDINE]", "> 1 µM"),
    ("CC1=C(c2nc(-c3cccc(C#N)c3)cs2)C(c2cccc(O)c2)NC(=O)N1 (centres undefined)", "51.8 µM"),
    ("CC1=C(c2nc(-c3cccc(O)c3)cs2)C(c2cccc(O)c2)NC(=O)N1 (centres undefined)", "89 µM"),
    ("COc1ccc(-c2csc(C3=C(C)NC(=O)NC3c3cccc(O)c3)n2)cc1 (centres undefined)", "> 100 µM"),
    ("CC1=C(c2nc(-c3ccc(C(F)(F)F)cc3)cs2)C(c2cccc(O)c2)NC(=O)N1 (centres undefined)", "40 µM"),
    ("CC1=C(c2nc(-c3ccc(C#N)cc3)cs2)C(c2ccc(C(F)(F)F)nc2)NC(=O)N1 (centres undefined)", "> 100 µM"),
    ("CC1=C(c2nc(-c3ccc(C#N)cc3)cs2)C(c2cncc(F)c2)NC(=O)N1 (centres undefined)", "> 100 µM"),
    ("CC1=C(c2nc(-c3cccc(C#N)c3)cs2)C(c2cccc(O)c2)NC(=O)N1C (centres undefined)", "> 100 µM"),
    ("CC1=C(c2nc(-c3ccc(C#N)cc3)cs2)C(c2ccnc(Cl)c2)NC(=O)N1 (centres undefined)", "> 100 µM"),
    ("COc1cncc(C2NC(=O)NC(C)=C2c2nc(-c3ccc(C#N)cc3)cs2)c1 (centres undefined)", "> 100 µM"),
    ("CC1=C(c2nc(-c3ccccc3)cs2)C(c2cccc(O)c2)NC(=O)N1 (centres undefined)", "> 100 µM"),
    ("CC1=C(c2nc(-c3cccc(C#N)c3)cs2)C(c2ccc(O)cc2)NC(=O)N1 (centres undefined)", "69.6 µM"),
    ("CC1=C(c2nc(-c3ccc(Br)cc3)cs2)C(c2cccc(O)c2)NC(=O)N1 (centres undefined)", "60 µM"),
    ("CC1=C(c2nc(-c3ccc(C#N)cc3)cs2)C(c2cccc(O)c2)NC(=O)N1 (centres undefined)", "98 µM"),
    ("COc1ccc(C2NC(=O)NC(C)=C2c2nc(-c3ccc(C#N)cc3)cs2)cc1O (centres undefined)", "> 100 µM"),
    ("CC1=C(c2nc(-c3ccc(C#N)cc3)cs2)C(c2cccc(O)c2)NC(=O)N1C (centres undefined)", "> 100 µM"),
    ("CC1=C(c2nc(-c3cccs3)cs2)C(c2cccc(O)c2)NC(=O)N1 (centres undefined)", "> 100 µM"),
    ("COc1ncccc1C1NC(=O)NC(C)=C1c1nc(-c2ccc(C#N)cc2)cs1 (centres undefined)", "> 100 µM"),
    ("CC1=C(c2nc(-c3ccc(C#N)cc3)cs2)C(c2ccc3ccccc3n2)NC(=O)N1 (centres undefined)", "> 100 µM"),
    ("CC1=C(c2nc(-c3ccc(C#N)cc3)cs2)C(c2ccc(OC(F)(F)F)cc2)NC(=O)N1 (centres undefined)", "> 100 µM"),
]
